assay.procedure: log P determination by HPLC on reversed-phase columns (C 18), analogously to OECD Guideline 117
Assay type: physicochemical
conditions.used: LC-MS in the neutral range, pH 7.8, 0.001 molar aqueous ammonium hydrogencarbonate / acetonitrile, HPLC reversed-phase C 18
Method: The log P values were determined analogously to OECD Guideline 117 (EC Directive 92/69/EEC) by HPLC (high-performance liquid chromatography) using reversed-phase columns (C 18), by the following methods: [a] The LC-MS determination in the acidic range was effected at pH 2.7 with 0.1% aqueous formic acid and acetonitrile (contains 0.1% formic acid) as eluents; linear gradient from 10% acetonitrile to 95% acetonitrile. log P^[a] is also referred to as log P(HCOOH). [b] […]
Hi! Could you tag entries with logP (neutral) below 3 as Fulfilled, and those at or above as Not fulfilled? Much appreciated.

Please review the entries below; each comes with its answer.
[in] Please let me know if `CCC1(CC)C(=O)N(C)N(c2cc(SCC(F)(F)F)c(C)cc2F)C1=O` shows logP (neutral) below 3.
[out] Not fulfilled

[in] Please let me know if Cc1cc(F)c(-n2c(=O)n(CC(F)F)c(=O)n2CC(F)(F)F)cc1[S+]([O-])CC(F)(F)F (centres unmarked) shows logP (neutral) below 3.
[out] Fulfilled

[in] Please let me know if `CCn1c(=O)n(CC(C)C)n(-c2cc(SCC(F)(F)F)c(C)cc2F)c1=O` shows logP (neutral) below 3.
[out] Not fulfilled

[in] Please let me know if `Cc1ccc(-n2c(=O)n(C3CC3)c(=O)n2C)cc1SCC(F)(F)F` shows logP (neutral) below 3.
[out] Fulfilled

[in] Please let me know if Cc1cc(F)c(-n2c(=O)n(C3CC3)c(=O)n2C(C)C)cc1[S+]([O-])CC(F)(F)F (centres unmarked) shows logP (neutral) below 3.
[out] Fulfilled

Further cases:
[in] Please let me know if Cc1cc(F)c(N2C(=O)CN(Cc3ccccc3)C2=O)cc1[S+]([O-])CC(F)(F)F (centres unmarked) shows logP (neutral) below 3.
[out] Fulfilled

[in] Please let me know if CCn1c(=O)n(C(C)C)c(=O)n1-c1cc([S+]([O-])CC(F)(F)F)c(C)cc1F (centres unmarked) shows logP (neutral) below 3.
[out] Fulfilled

[in] Please let me know if `Cc1cc(F)c(-n2c(=O)n(C3CC3)c(=O)n2C(C)C)cc1SCC(F)(F)F` shows logP (neutral) below 3.
[out] Not fulfilled
